# credit: patent US10501456B2

# assayInfo: Rat PK study
# Type: in vivo, female Sprague-Dawley rats
# conditionsUsed: female, Sprague-Dawley, plasma, 20 mg/kg, oral dosing, read-out: t½ (converted)
The entries below are paired with their reported half-life.

- molecule: "COCCCOc1cc2c(cc1Cl)-c1c(F)c(=O)c(C(=O)O)cn1[C@H](C(C)(C)C)C2 (single isomer, unassigned)"
  resultUnits: "h"
  half-life: 4.47
- molecule: "COCCCOc1cc2c(cc1Cl)-c1cc(=O)c(C(=O)O)cn1[C@H](C(C)(C)C)C2 [Compound 203 in WO2015113990, reference compound]"
  resultUnits: "h"
  half-life: 3.73

---

# assayInfo: Rat PK study
# Format: in vivo, female Sprague-Dawley rats
# conditionsUsed: female, Sprague-Dawley, plasma, 20 mg/kg, oral dosing
# Method: The pharmacokinetics of compounds were evaluated in female Sprague-Dawley rats via Intravenous and Oral Administration. The iv dose was administered as a slow bolus in the Jugular vein, and oral doses were administered by gavage. The fomulaltion for IV dosing is 20% DMSO and 60% PEG 400 in water, and the PO formulation (suspension) is 1% MC, 0.4% Kolliphor EL in water. […] Concentrations of compounds in the plasma samples will be analyzed using a LC-MS/MS method. […]
outcomeMeasure: AUC(0-t)

- molecule: "COCCCOc1cc2c(cc1Cl)-c1c(F)c(=O)c(C(=O)O)cn1[C@H](C(C)(C)C)C2 (single isomer, unassigned) [Example 2A]"
  resultValue: "39600 ng·h/mL"
- molecule: "COCCCOc1cc2c(cc1Cl)-c1cc(=O)c(C(=O)O)cn1[C@H](C(C)(C)C)C2 [Compound 203 in WO2015113990, reference compound]"
  resultValue: "16700 ng·h/mL"

---

The entries below are paired with their reported bioavailability.
# assayInfo: Rat PK study
# Assay type: in vivo, female Sprague-Dawley rats
# conditionsUsed: female, Sprague-Dawley, plasma, 10 mg/kg, oral dosing
outcomeMeasure: bioavailability (%)

- sampleSmiles: "COCCCOc1cc2c(cc1OC)-c1c(F)c(=O)c(C(=O)O)cn1[C@H](C(C)(C)C)C2"
  outcomeMeasure: "bioavailability"
  resultValue: 24.1
- sampleSmiles: "[2H]C([2H])([2H])Oc1cc2c(cc1OCCCOC)C[C@@H](C(C)(C)C)n1cc(C(=O)O)c(=O)c(F)c1-2"
  outcomeMeasure: "bioavailability"
  resultValue: 61.1
